test system: HS 578T breast; test: NCI-60 one-dose screen, 48 h (100 = growth as untreated, 0 = no growth, -100 = all killed); details: 10 µM
This is part of a sample that, as a whole, favours compounds with a hit. Of some 83,000 tested, about 20% had one in any assay. Calls of active or inactive are those of the source. The calls were made as follows: active = growth percent below 10; inactive = the rest.
Kindly supply the reported growth values for the records listed here.

## Input Indicate its recorded growth; the molecule in question is COc1ccc(N(C)c2ncnc3occ(C)c23)cc1
## Output 110% (inactive)

## Input Indicate its recorded growth; the molecule in question is CN(C)CCCOc1ccc(NC2=C(Cl)C(=O)C(Nc3ccc(OCCCN(C)C)cc3)=C(Cl)C2=O)cc1
## Output -0.291% (active)

## Input Indicate its recorded growth; the molecule in question is CC1/C=C/C=C/C=C/C=C/C=C/C=C/C=C/C(O[C@@H]2O[C@H](C)[C@H](O)[C@@H](O)[C@@H]2N)CC(O)C(C(=O)O)C(O)CC(=O)CC(O)CC(O)CC(O)CC(=O)CCCC(=O)CC(=O)OC1C(C)CC(C)C(O)CC(=O)c1ccc(N)cc1 (stereo partly drawn)
## Output -52.8% (active)

## Input Indicate its recorded growth; the molecule in question is COc1cc(-c2nn(-c3ccc(NC(=O)NCCCNC(=O)c4ccccc4)cc3)cc2-c2ccncc2)ccc1Cl
## Output 40% (inactive)

## Input Indicate its recorded growth; the molecule in question is N=C1S/C(=C/c2ccc(-c3ccc4c(c3)C(=O)NC4=O)o2)C(=O)N1c1ccc(Br)cc1
## Output 61.6% (inactive)

## Input Indicate its recorded growth; the molecule in question is COc1ccc(-c2cc(-c3ccc(Cl)cc3)nc(SCCCC(=O)NO)n2)cc1OC
## Output 29.2% (inactive)

## Input Indicate its recorded growth; the molecule in question is COc1cc(-c2nn(-c3cccc(NC(=O)CCN4CCN(c5ccccc5)CC4)c3)cc2-c2ccncc2)ccc1Cl
## Output 31.8% (inactive)

## Input Indicate its recorded growth; the molecule in question is COc1ccc(/C(C#N)=C/c2cccc(OC)c2OC)cc1
## Output 91.6% (inactive)

====

system: U251 CNS; test: NCI-60 one-dose screen, 48 h (100 = growth as untreated, 0 = no growth, -100 = all killed); conditions: 10 µM
About 83,000 compounds went through this panel and 20% of them were active in at least one assay; those are over-represented in the sample as a whole.
Metric: growth (%)
Expressed in %, but write only the number.

## Input Indicate its recorded growth; the compound in question is C(=N\Nc1ncnc2sc3c(c12)CCNC3)/c1cccc2ccccc12
## Output 83

## Input Indicate its recorded growth; the compound in question is CNS(=O)(=O)Oc1ccc(-c2ccc3occc3c2)cc1
## Output 94.1

## Input Indicate its recorded growth; the compound in question is COc1cc2cc(Oc3ccc(NC(=O)Nc4ccc(C(F)(F)F)cc4)cc3)c(C)nc2cc1OC
## Output 15

## Input Indicate its recorded growth; the compound in question is CCN(CC)CCN1c2nc3ccccc3cc2Sc2cc3ccccc3nc21
## Output 5.23

## Input Indicate its recorded growth; the compound in question is COc1cc(-c2nn(-c3cccc(NC(=O)CCNc4ccc(N5CCOCC5)cc4)c3)cc2-c2ccncc2)ccc1Cl
## Output 24

## Input Indicate its recorded growth; the compound in question is NS(=O)(=O)Oc1ccc(-c2ccc3sccc3c2)cc1
## Output 88.8

## Input Indicate its recorded growth; the compound in question is CCOC(=O)c1cc(C(=O)c2ccc(F)cc2F)n2ccccc12
## Output 79.4

## Input Indicate its recorded growth; the compound in question is CCOC(=O)c1sc2ncnc(Nc3ccc4c(cnn4C(=O)Nc4ccc(C)c(Cl)c4)c3)c2c1C
## Output 99.3

## Input Indicate its recorded growth; the compound in question is CCc1cc(Cl)c(OC)c(C(=O)NCC2CCCN2CC)c1O (stereo not given)
## Output 83.8

## Input Indicate its recorded growth; the compound in question is CCn1cc(C(=O)O)c(=O)c2cc(F)c(N3CCNCC3)cc21
## Output 101

## Input Indicate its recorded growth; the compound in question is Cc1ccc(Cl)cc1NC(=O)CCl
## Output 67.5

## Input Indicate its recorded growth; the compound in question is CCCCC(CC)CN=C(N)NC(N)=NCCCCCCN=C(N)NC(N)=NCC(CC)CCCC (stereo not given)
## Output -89.8

## Input Indicate its recorded growth; the compound in question is CCCCCCCCCCCC[n+]1c(C)cc(N)c2ccccc21
## Output 8.56

## Input Indicate its recorded growth; the compound in question is CC[C@@H](C(=O)[C@@H](C)[C@@H](O)[C@H](C)[C@@H]1O[C@@H]([C@@H](CC)C(=O)O)CC[C@@H]1C)C1O[C@]2(C=CC(=O)[C@]3(CC[C@@](C)([C@H]4CC[C@](O)(CC)[C@H](C)O4)O3)O2)[C@H](C)C[C@@H]1C (stereo not given in full)
## Output 24

## Input Indicate its recorded growth; the compound in question is CCN(CC)CCCC(Nc1c2ccc(Cl)cc2nc2ccc(OC)cc12)c1ccc(F)cc1 (stereo not given)
## Output -29

## Input Indicate its recorded growth; the compound in question is O=C(CCc1nnc2sc(-c3cc(O)c(O)c(O)c3)nn12)c1nc2ccccc2[nH]1
## Output 94.4

## Input Indicate its recorded growth; the compound in question is Oc1cccc(-c2nc3sccn3c2-c2ccncn2)c1
## Output 114

## Input Indicate its recorded growth; the compound in question is CCN1C(=O)CC(SC2CC(=O)N(CC)C2=O)C1=O (stereo not given)
## Output 102

## Input Indicate its recorded growth; the compound in question is CS(=O)(=O)c1nccc(-c2c(-c3cccc(OCc4ccc(F)cc4)c3)nc3sccn23)n1
## Output 96.6

## Input Indicate its recorded growth; the compound in question is CC(C)(C)OC(=O)N1CCc2c(sc3ncnc(N/N=C/c4cccc5ccccc45)c23)C1
## Output 33.7

====

system: U251 CNS; experiment: NCI-60 one-dose screen, 48 h (100 = growth as untreated, 0 = no growth, -100 = all killed); settings: 10 µM
About 83,000 compounds went through this panel and 20% of them were active in at least one assay; those are over-represented in the sample as a whole.
Sorting guide: entries reporting growth beneath 90% go in the label 1 pile, the rest go in the label 0 pile.

## Input Consider the compound CC(C)CCN(CCC(C)C)CC(=O)Nc1ccc(S(=O)(=O)c2ccc(NC(=O)CN(CCC(C)C)CCC(C)C)cc2)cc1 . Is its growth strictly less than 90%?
## Output label 1

## Input Consider the compound COc1ccc2c(c1)CC=C1[C@@H]2CC[C@]2(C)C(=O)/C(=N/O)C[C@@H]12 . Is its growth strictly less than 90%?
## Output label 0

## Input Consider the compound Cn1cnc([N+](=O)[O-])c1/C=C1\Oc2ccc(Br)cc2C1=O . Is its growth strictly less than 90%?
## Output label 0

====

Test system: SN12C renal
Experiment: NCI-60 one-dose screen, 48 h (100 = growth as untreated, 0 = no growth, -100 = all killed)
Conditions: 10 µM
Protocol: Growth inhibition of the SN12C human tumor cell line is measured as a screen for anti-cancer activity. Cells are grown in 96 well plates and exposed to the test compound for 48 hours. Compounds are tested at a single concentration, which is 10^-5 M for most compounds. The reported endpoint is percent growth (GI% or GIPRCNT), where numbers from 0 - 100% represent growth inhibition, and numbers from -100% - 0 represent cell death. For example, a value of 40 represents 60% growth inhibition. […]
The panel holds about 83,000 compounds, 20% with a hit somewhere; the sample as a whole holds those more often.
Kindly supply the reported growth values for the records listed here.
Expressed in %, but write only the number.

## Input Indicate its recorded growth; the compound in question is Cc1nc2n(c(=O)c1CCN1CCC(c3noc4cc(F)ccc34)CC1)CCC[C@@H]2O
## Output 101

## Input Indicate its recorded growth; the compound in question is Cc1c(Cl)cccc1NC(=O)CN1CCOCC1
## Output 99.9

## Input Indicate its recorded growth; the compound in question is CCc1cc(Cl)c(OC)c(C(=O)NCC2CCCN2CC)c1O (stereo not given)
## Output 92.5

## Input Indicate its recorded growth; the compound in question is O=C(CSc1nccc(Nc2cccc3ccccc23)n1)c1ccc(Cl)cc1
## Output 82.6

## Input Indicate its recorded growth; the compound in question is OC(CCN1CCCC1)(c1ccccc1)C1CCCCC1 (stereo not given)
## Output 95.9

## Input Indicate its recorded growth; the compound in question is Cc1cc(Br)nnc1Br
## Output 109

## Input Indicate its recorded growth; the compound in question is CSc1nc(S(C)(=O)=O)nc2[nH]c(=O)[nH]c12
## Output 95.9

## Input Indicate its recorded growth; the compound in question is Nc1cc(-c2ccncc2)c[nH]c1=O
## Output 104

## Input Indicate its recorded growth; the compound in question is O=c1oc2c(cc1-c1ccc(F)cc1)C(O)Oc1ccccc1-2 (stereo not given)
## Output 95.4

## Input Indicate its recorded growth; the compound in question is CCCN1CN2C(=O)N3CN(CCC)CN4C(=S)N(C1)C2C34 (stereo not given)
## Output 100

## Input Indicate its recorded growth; the compound in question is C[n+]1c2ccccc2nc2ccccc21
## Output -27.8

## Input Indicate its recorded growth; the compound in question is COC(=O)CC[C@@H](C)[C@H]1CC[C@H]2[C@@H]3CC[C@@H]4C[C@H](O)CC[C@]4(C)[C@H]3C[C@H](O)[C@]12C
## Output 97.8

## Input Indicate its recorded growth; the compound in question is CCCCN(CCCC)C(=O)[C@H](CC)[C@@H]1CC[C@@H](C)[C@@H]([C@H](C)[C@@H](O)[C@@H](C)C(=O)[C@H](CC)C2O[C@]3(C=C[C@@H](O)[C@]4(CC[C@@](C)([C@H]5CC[C@](O)(CC)[C@H](C)O5)O4)O3)[C@H](C)C[C@@H]2C)O1 (stereo not given in full)
## Output 3.56

## Input Indicate its recorded growth; the compound in question is C=C(C)[C@@H]1CC[C@]2(COCCC#N)CC[C@]3(C)[C@H](CC[C@@H]4[C@@]5(C)Cc6c([nH]c7ccccc67)C(C)(C)[C@@H]5CC[C@]43C)[C@@H]12
## Output 98.7

## Input Indicate its recorded growth; the compound in question is Nc1nccc(OCCO)n1
## Output 107

## Input Indicate its recorded growth; the compound in question is CN(C)CCCOc1ccc(OCCCN(C)C)c2c1C(=O)c1ccccc1C2=O
## Output 6.55

## Input Indicate its recorded growth; the compound in question is Cc1ccc(C2NC(=S)N3C(c4ccc(C)cc4)NC(=S)N23)cc1 (stereo not given)
## Output 52.5

## Input Indicate its recorded growth; the compound in question is NC(=O)c1cccc(-n2ccc3cc(NC(=O)Nc4ccc(Cl)c(C(F)(F)F)c4)ccc32)n1
## Output 73.4

## Input Indicate its recorded growth; the compound in question is Cc1ccc(S(=O)(=O)N/N=C2\CCCc3ccccc32)cc1
## Output 112

## Input Indicate its recorded growth; the compound in question is CN(C)CCCOc1ccc(NC2=C(Cl)C(=O)C(Nc3ccc(OCCCN(C)C)cc3)=C(Cl)C2=O)cc1
## Output -91.6

## Input Indicate its recorded growth; the compound in question is COc1ccc(/C=c2\sc3n(c2=O)C(c2cc(OC)c(OC)c(OC)c2)C=C(c2ccc(OC)c(OC)c2)N=3)cc1OC (stereo not given)
## Output 93.9

## Input Indicate its recorded growth; the compound in question is Cc1ccc(NCCN(C)CC(C)O)c2c(=O)c3ccc(Cl)cc3sc12 (stereo not given)
## Output 49.8

## Input Indicate its recorded growth; the compound in question is COc1cc(-c2nn(-c3cccc(NC(=O)CCN4CCN(Cc5ccccc5)CC4)c3)cc2-c2ccncc2)ccc1Cl
## Output 41.7

## Input Indicate its recorded growth; the compound in question is COc1cc(Cc2cc(-c3ccccc3)n[nH]c2=O)cc(OC)c1OC
## Output 72.9

## Input Indicate its recorded growth; the compound in question is Cc1cc(CC(C)CC(C)(C)C)n(O)c(=O)c1 (stereo not given) (tested in a mixture with another compound)
## Output 13.2

## Input Indicate its recorded growth; the compound in question is OCC1OC(n2ccc3c(NO)ncnc32)C(O)C1O (stereo not given)
## Output -27.2

## Input Indicate its recorded growth; the compound in question is O=c1[nH]c(=O)n(C2C[C@H](O)[C@@H](CO)O2)cc1C(F)(F)F (stereo not given in full)
## Output 110

## Input Indicate its recorded growth; the compound in question is Nc1nc(Cl)nc2c1ncn2C1O[C@H](CO)[C@@H](O)[C@@H]1F (stereo not given in full)
## Output 14.5

## Input Indicate its recorded growth; the compound in question is O=C(CN1CCN(C(=O)c2ccccc2)CC1)Nc1ccccc1SCc1ccccc1
## Output 77.9

## Input Indicate its recorded growth; the compound in question is COc1cc(-c2nc3ccccc3o2)cc(CN2CCCCC2)c1O
## Output 62.1

## Input Indicate its recorded growth; the compound in question is COc1ccc(-c2n[nH]nc2-c2cc(OC)c(OC)c(OC)c2)cc1
## Output 25

## Input Indicate its recorded growth; the compound in question is Cc1c2cnccc2c(C)c2c1oc1ccccc12
## Output 69.1

## Input Indicate its recorded growth; the compound in question is CCOC(=O)c1cocc1C(=O)O
## Output 105

## Input Indicate its recorded growth; the compound in question is COc1cc(-c2nn(-c3cccc(NC(=O)NCCNC(=O)c4cccc(C(F)(F)F)c4)c3)cc2-c2ccncc2)ccc1Cl
## Output 75.2

## Input Indicate its recorded growth; the compound in question is N#CC1=C(N)Oc2cc(N)ccc2C1c1cccnc1 (stereo not given)
## Output 98.5

## Input Indicate its recorded growth; the compound in question is O=C1OC(C(Cl)(Cl)Cl)OC1C(Cl)(Cl)Cl (stereo not given)
## Output 97.1

## Input Indicate its recorded growth; the compound in question is CC1=CC2C(C(O)CC3(C)C2CC(C)C32OCOC23COCO3)C2(C)C/C(=C/O)C(=O)C=C12 (stereo not given)
## Output 26.2

## Input Indicate its recorded growth; the compound in question is CS(=O)(=O)c1nccc(-c2c(-c3cccc(OCc4ccc(F)cc4)c3)nc3sccn23)n1
## Output 77.7

## Input Indicate its recorded growth; the compound in question is COc1cc(/C=C/c2cc(/C=C/c3ccc(O)c(OC)c3)nc(N)n2)ccc1O
## Output 22.1

## Input Indicate its recorded growth; the compound in question is CCN(CC)CCCC(C)Nc1c2ccc(Cl)cc2nc2ccc(OC)cc12 (stereo not given)
## Output 33.2
